- Tested on: HCV core protein (residues 1-106) dimerization
- assay.notes: blockers of core106 self-association – biochemical, TR-FRET, high-throughput, primary screen (AID 1899)
- test.conditions: TR-FRET GST/Flag-core106 dimerization, 1536-well; at 5 µM
The whole screen tested about 300,000 compounds, of which about 1,000 (0.33%) were called active.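 The calls were made as follows: active = inhibition above the mean of all tested compounds plus 3 SD, set per screening campaign (cut at about 45% in these data); inactive = the rest.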 This is one part of a sample in which actives are shown more often than they occur.
Your answer must be one of the following: active, inactive

The examples below pair each entry with its known result.
> print(dat)
                                   molecule  discrete.label
1       Nc1ccc2nc3c(=O)[nH]c(=S)[nH]c3nc2c1          active
2  COc1ccc(/C=N/NS(=O)(=O)c2ccc(NC(C)=O)cc2)cc1        inactive

Problem: Status in this test for Cc1ccc(S(=O)(=O)N/N=C\c2cc3c(cc2[N+](=O)[O-])OCO3)cc1 ?
Result: inactive

Problem: Repeat with C/C(=N\NC(=O)c1ccc(CSc2nc(C)cc(C)n2)cc1)C1CCCCC1
Result: inactive
